B1: Advillin, residues 785 to 819; numbered along this chain, O75366 (parent)
chain: LSEQDFVSVFGITRGQFAALPGWKQLQMKKEKGLF

Variants of: B1
Measurement Notes: abundance fitness (aPCA) (normalised: wild type 0, dead -1); higher = more abundant; growth selection in yeast, the domain comes from the species named
Condition Label: Homo sapiens

# Mutation Code, abundance fitness
rows = [
    ("Q27R", -0.186),
    ("G15F", -0.193),
    ("L20R", -0.563),
    ("K29D", -0.356),
    ("A18R", -0.197),
    ("K24E", -0.142),
    ("R14N", -0.611),
    ("S8V", -0.117),
    ("D5E", -0.073),
    ("Q4V", 0.002),
    ("D5S", -0.031),
    ("F35E", 0.129),
    ("K30L", -0.192),
    ("F6Q", -0.402),
    ("A18I", -0.1),
    ("K24M", -0.098),
    ("S8K", 0.156),
    ("E31A", -0.173),
    ("P21K", -0.413),
    ("P21G", -0.32),
    ("E3G", -0.366),
]
